# target_entity: recombinant HLA-DRB1*0401 protein (human)
pIC50: −log10 of the molar value.
recorded_metric: pIC50

binder	recorded_metric	reported_value
SYATNMFATWSP (also called peptide with F2196A substitution) [FVIII2194-2205,F2196A peptide]	pIC50	< 5.00
